Data credit: patent US20150337019A1

# TARGET SYSTEM: Cathepsin B from bovine spleen (bovine, UniProt P07688 80-332)
# EXPERIMENT SUMMARY: cell-based or functional assay
The star is where a group is joined. TNBS = trinitrobenzene sulphonic acid, N-terminal block, O=[N+]([O-])c1cc([N+](=O)[O-])c(*)c([N+](=O)[O-])c1; pNA = O=[N+]([O-])c1ccc(N*)cc1
# Cathepsin B inhibition test, 2 mM peptide listing for each entry below
QUANTITY KIND: Cathepsin B inhibition test, 2 mM peptide

>>> reading("H-IFVTMLR-OH (also: MGO-modified, site not given here) [MGO-modified H-IFVTMLR-OH]")
78.7
>>> reading("H-Met-Gln-Lys-OH (also: MGO-modified, site not given here) [MGO-modified H-MQK-OH]")
99.5
>>> reading("H-HNIR-OH (also: MGO-modified, site not given here) [MGO-modified H-HNIR-OH]")
103
>>> reading("Ac-Cys-Asp-Arg-OH [Ac-CDR-OH]")
121
>>> reading("H-IFVTMLR-OH [H-IFVTMLR-OH]")
80.5
>>> reading("Ac-HNIR-OH [Ac-HNIR-OH]")
172
>>> reading("H-Met-Gln-Lys-OH [H-MQK-OH]")
127
>>> reading("H-Met-Thr-Arg-OH (also: MGO-modified, site not given here) [MGO-modified H-MTR-OH]")
104
>>> reading("Ac-YINR-OH [Ac-YINR-OH]")
93.1
>>> reading("Ac-Met-Gln-Lys-OH [Ac-MQK-OH]")
121
>>> reading("Ac-Met-Gln-Lys-OH (also: MGO-modified, site not given here) [MGO-modified Ac-MQK-OH]")
69.2
>>> reading("H-Met-Thr-Arg-OH [H-MTR-OH]")
143
>>> reading("Ac-Phe-Thr-Lys-OH (also: MGO-modified, site not given here) [MGO-modified Ac-FTK-OH]")
105
>>> reading("Ac-YINR-OH (also: MGO-modified, site not given here) [MGO-modified Ac-YINR-OH]")
99
>>> reading("H-HNIR-OH [H-HNIR-OH]")
152
>>> reading("Ac-Met-Thr-Arg-OH (also: MGO-modified, site not given here) [MGO-modified Ac-MTR-OH]")
119
>>> reading("H-YINR-OH [H-YINR-OH]")
142
>>> reading("H-Cys-Asp-Arg-OH (also: MGO-modified, site not given here) [MGO-modified H-CDR-OH]")
96
>>> reading("Ac-Met-Thr-Arg-OH [Ac-MTR-OH]")
126
>>> reading("{TNBS}-Phe-Ala-Lys-pNA (SMILES C[C@H](NC(=O)[C@H](Cc1ccccc1)Nc1c([N+](=O)[O-])cc([N+](=O)[O-])cc1[N+](=O)[O-])C(=O)N[C@@H](CCCCN)C(=O)Nc1ccc([N+](=O)[O-])cc1) [TNBS-FAK-pNA]")
99.3
>>> reading("Ac-IFVTMLR-OH [Ac-IFVTMLR-OH]")
88.3
>>> reading("H-Phe-Asp-Arg-OH [H-FDR-OH]")
175
